meta.source: ChEMBL document CHEMBL2034830

measuredTarget: Bile acid receptor (Homo sapiens, UniProt Q96RI1)
Sequence (Q96RI1 whole entry): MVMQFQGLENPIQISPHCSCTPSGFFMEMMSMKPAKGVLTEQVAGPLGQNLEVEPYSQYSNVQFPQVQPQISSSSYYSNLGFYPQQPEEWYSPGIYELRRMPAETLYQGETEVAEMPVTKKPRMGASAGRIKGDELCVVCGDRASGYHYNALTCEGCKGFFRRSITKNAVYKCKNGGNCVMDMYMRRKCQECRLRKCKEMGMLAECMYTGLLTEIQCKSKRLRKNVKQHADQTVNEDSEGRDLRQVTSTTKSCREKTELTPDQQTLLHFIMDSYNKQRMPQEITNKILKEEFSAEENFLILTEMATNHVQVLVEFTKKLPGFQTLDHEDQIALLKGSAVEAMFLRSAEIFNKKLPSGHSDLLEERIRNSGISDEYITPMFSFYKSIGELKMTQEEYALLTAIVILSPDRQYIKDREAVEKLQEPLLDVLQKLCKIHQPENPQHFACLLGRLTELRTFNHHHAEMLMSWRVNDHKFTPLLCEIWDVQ
assayProtocol: Agonist activity at human GST-tagged FXR ligand binding domain assessed as recruitment of Src-1 peptide […] by AlphaScreen assay
measurementContext: read-out: EC50
observationType: EC50 (nM)
Please state the figure in nM; there is no need to write the unit.

[Q] Record request: EC50 value, item CCc1ccccc1-n1nc(C)c2c1NC(=O)[C@H](C)S[C@@H]2c1ccc(Oc2ccccc2)cc1 (racemic)
[A] 1100

[Q] Further, for COc1ccccc1-c1ccc([C@H]2S[C@@H](C)C(=O)Nc3c2c(C)nn3-c2ccccc2C)cc1 (racemic) ?
[A] 1100

[Q] Same lookup for COc1ccccc1-n1nc(C)c2c1NC(=O)[C@H](C)S[C@@H]2c1ccc(Oc2ccccc2)cc1 (racemic) , please.
[A] 3300

[Q] And for Cc1nn(-c2ccccc2C(F)(F)F)c2c1C(c1ccc(Oc3ccccc3)cc1)SC(C)C(=O)N2 (racemic) ?
[A] 2000

[Q] Field entry: CCCc1ccccc1-n1nc(C)c2c1NC(=O)[C@H](C)S[C@@H]2c1ccc(Oc2ccccc2)cc1 (racemic)
[A] 1100

[Q] Request: Cc1nn(-c2ccccc2Cl)c2c1C(c1ccc(Oc3ccccc3)cc1)SC(C)C(=O)N2 (mixture of isomers)
[A] 2700

[Q] Lookup Cc1ccccc1-n1nc(C)c2c1NC(=O)[C@H](C)S[C@@H]2c1ccc(Oc2ccccc2)cc1 (racemic)
[A] 1300
